target_or_test_system: T1, ECF35_3582
T1 chain: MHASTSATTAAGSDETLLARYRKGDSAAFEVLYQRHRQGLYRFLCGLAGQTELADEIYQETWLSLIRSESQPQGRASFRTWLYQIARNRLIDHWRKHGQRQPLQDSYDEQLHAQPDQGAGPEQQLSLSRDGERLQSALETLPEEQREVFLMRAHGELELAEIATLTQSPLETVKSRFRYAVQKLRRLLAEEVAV
quantity_measured: fold repression
Provide a numeric answer; units are not to be included.

Prompt: Please give the documented fold repression of AS03_1198 (protein) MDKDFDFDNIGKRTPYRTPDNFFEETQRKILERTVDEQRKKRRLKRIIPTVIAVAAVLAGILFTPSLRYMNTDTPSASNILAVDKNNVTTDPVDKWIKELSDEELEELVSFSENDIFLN
Completion: 1.05

Prompt: Indicate its recorded fold repression; the binder in question is AS25_1643_cl43 (protein) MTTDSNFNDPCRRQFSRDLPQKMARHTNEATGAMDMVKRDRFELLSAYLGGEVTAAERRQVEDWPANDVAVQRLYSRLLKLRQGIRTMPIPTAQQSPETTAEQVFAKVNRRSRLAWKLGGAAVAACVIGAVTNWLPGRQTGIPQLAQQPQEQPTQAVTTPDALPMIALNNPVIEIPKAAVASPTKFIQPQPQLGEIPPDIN
Completion: 1.57

Prompt: Using the record for AS11_987 (protein) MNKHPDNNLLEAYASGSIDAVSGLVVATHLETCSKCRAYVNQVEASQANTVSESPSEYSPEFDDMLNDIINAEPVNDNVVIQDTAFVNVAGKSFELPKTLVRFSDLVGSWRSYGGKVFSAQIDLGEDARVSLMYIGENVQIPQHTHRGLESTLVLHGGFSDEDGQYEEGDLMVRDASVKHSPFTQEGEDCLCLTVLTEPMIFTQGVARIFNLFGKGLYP , state its measured fold repression.
Completion: 1.71

Prompt: Answer with reported fold repression of AS37_2513 (protein) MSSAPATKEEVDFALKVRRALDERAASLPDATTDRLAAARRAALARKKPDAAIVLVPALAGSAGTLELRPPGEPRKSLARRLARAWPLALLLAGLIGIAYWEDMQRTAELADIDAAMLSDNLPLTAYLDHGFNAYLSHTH
Completion: 2.62

Prompt: Could you please provide reported fold repression for AS22_1147 (protein) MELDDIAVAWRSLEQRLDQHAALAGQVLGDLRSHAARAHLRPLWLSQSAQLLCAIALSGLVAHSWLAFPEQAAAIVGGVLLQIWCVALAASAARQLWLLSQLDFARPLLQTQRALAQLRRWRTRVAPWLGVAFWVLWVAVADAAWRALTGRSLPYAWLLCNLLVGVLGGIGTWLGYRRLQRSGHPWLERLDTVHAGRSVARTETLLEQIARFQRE ? Thanks!
Completion: 1.94

Prompt: Return the recorded fold repression value; entry: AS20_992 (protein) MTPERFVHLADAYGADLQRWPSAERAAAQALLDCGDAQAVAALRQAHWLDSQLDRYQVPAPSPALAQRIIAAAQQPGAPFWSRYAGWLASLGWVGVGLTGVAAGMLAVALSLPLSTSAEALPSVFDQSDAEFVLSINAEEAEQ
Completion: 1.6
